Data credit: patent US20230046828A1

target: T1, CXCL12 (CXC Ligand 12) (UniProt O62657 22-89); test: BLI, biotinylated HMGB1 construct on streptavidin sensor, CXCL12 0-150 µM in solution; kinetics rates derived from interferogram
T1 construct: mature; Untagged in BLI and NMR; CXCL12-His6 was used at 1 µM on the HMGB1 SPOT peptide arrays; also called CXCL12A-c021, wt 1-67, no tag; CXCL12-His6
T1 sequence (P48061 22-89): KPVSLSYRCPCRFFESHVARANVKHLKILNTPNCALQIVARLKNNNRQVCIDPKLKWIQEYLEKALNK
MEASUREMENT_NAME: kon (M⁻¹ s⁻¹)
Expressed in M⁻¹ s⁻¹, but write only the number.

Reference set (2 entries):
binder="non-oxidizable 3S-HMGB1, full-length (1-214) (ligand, Biotinylated (c022) in BLI with CXCL12, His6-tagged in the reverse peptide array; also called 3S-FL HMGB1 (c022)) GKGDPKKPRGKMSSYAFFVQTSREEHKKKHPDASVNFSEFSKKSSERWKTMSAKEKGKFEDMAKADKARYEREMKTYIPPKGETKKKFKDPNAPKRPPSAFFLFSSEYRPKIKGEHPGLSIGDVAKKLGEMWNNTAADDKQPYEKKAAKLKEKYEKDIAAYRAKGKPDAAKKGVVKAEKSKKKKEEEEDEEDEEDEEEEEDEEDEDEEEDDDDE" observed=12000
binder="FR-HMGB1 Box B 94-162 (helical-only) (ligand, also: biotin or His6 tag in some assays, sequence not given here, also called HMGB1A-c028; not shown: C-terminal Avi / biotinylation tag (BLI, NMR) or His6 tag (reverse peptide array)) PKRPPSAFFLFCSEYRPKIKGEHPGLSIGDVAKKLGEMWNNTAADDKQPYEKKAAKLKEKYEKDIAAYR" observed=16000

Enquiry: May I ask what kon has been recorded for FR-HMGB1 Box A 1-88 (full HMG Box with flanking regions) (ligand, biotinylated in BLI, also called extended box A 1-88; c037; not shown: biotinylation tag) GKGDPKKPRGKMSSYAFFVQTCREEHKKKHPDASVNFSEFSKKCSERWKTMSAKEKGKFEDMAKADKARYEREMKTYIPPKGETKKKF ?
Return: 13000
